mass density overview
settings: 333.15 K; 25000 kPa; Liquid
± gives the expanded uncertainty stated by the source.

| MOLECULE | mass density |
| --- | --- |
| CCCCOC(C)=O [butyl ethanoate] | 863.6 ± 6.1 kg/m3 |
| CCCCCOC(C)=O [pentyl ethanoate] | 860.1 ± 6.3 kg/m3 |
| CCOC(C)=O [ethyl acetate] | 879 ± 6.1 kg/m3 |
| CCCOC(C)=O [propyl ethanoate] | 868.6 ± 6.3 kg/m3 |

---

// mass density lookup, one value per entry
settings: 373.15 K; 2000 kPa; Liquid
OBSERVATION_TYPE: mass density (kg/m3)

| COMPOUND | READING |
| --- | --- |
| CCCCCOC(C)=O [pentyl ethanoate] | 797.7 |
| CCCOC(C)=O [propyl ethanoate] | 797.2 |
| CCCCOC(C)=O [butyl ethanoate] | 798.7 |
| CCOC(C)=O [ethyl acetate] | 800.4 |
